Test system: CAKI-1
assay procedure: NCI tumour cell line growth inhibition, 48 h
The source made the active and inactive calls. No stated cut-off is given here; in the data, active = GI50 up to about 1.1 µM and inactive = higher.
endpoint name: GI50

>>> observed_value("O=c1c2ccccc2[nH]c2c(Cl)cc(Cl)c(N3CCCCC3)c12")
"30.5 µM (inactive)"
>>> observed_value("CN(C)c1ccc(C2CC(=O)CC(c3ccc(N(C)C)cc3)C23C(=O)NC(=O)NC3=O)cc1 (centres undefined)")
"> 25 µM (inactive)"
>>> observed_value("COc1c(-c2nc3ccc(N4CCN(C)CC4)nc3[nH]2)cc(OC)c2[nH]c(COC(C)=O)nc12")
"> 100 µM (inactive)"
>>> observed_value("CCOc1ccc(/N=C/c2ccc3ccccc3n2)cc1")
"> 100 µM (inactive)"
>>> observed_value("CC(C)(C)C1=C(Br)C(Br)(C(C)(C)C)OP1(=O)c1ccccc1 (centres undefined)")
"> 100 µM (inactive)"
>>> observed_value("COc1ccc(N2C(=O)/C(=C\\c3cc(OC)c(OC)c(OC)c3)S(=O)(=O)C2c2ccccc2)cc1 (centres undefined)")
"84.7 µM (inactive)"
>>> observed_value("COc1ccc2ccccc2c1C1OC(=O)c2ccccc21 (centres undefined)")
"> 100 µM (inactive)"
>>> observed_value("Cc1ccc(NC(=O)/C(=N/N(C)C)C(C2OC(=O)c3ccccc32)[N+](=O)[O-])cc1 (centres undefined)")
"> 100 µM (inactive)"
>>> observed_value("C[C@]12CC[C@@H]3c4ccc(OC(=O)c5ccccc5)cc4CC[C@H]3[C@@H]1CCC2OC(=O)c1cccc2c(=O)c3ccccc3[nH]c12 (some centres undefined)")
"27 µM (inactive)"
>>> observed_value("Cc1coc2c1C(=O)C(=O)c1c-2ccc2c1CCCC2(C)C")
"1.95 µM (inactive)"
>>> observed_value("N#CC1=C(Cl)NC(Cl)=C(C#N)C1c1c(Cl)cccc1Cl")
"55.6 µM (inactive)"
>>> observed_value("O=C(NO)c1ccc([N+](=O)[O-])cc1")
"61 µM (inactive)"
>>> observed_value("CCc1[nH]nc(C(N)=O)c1/N=N/N(C)C")
"24.8 µM (inactive)"
>>> observed_value("C=C1C(=O)C23[C@H](O)C1CC[C@H]2[C@]12COC3(O)[C@@H](O)[C@@H]1C(C)(C)CC[C@@H]2O")
"1.98 µM (inactive)"
